The values you see were collected from paper PMC9937549.

# System: L. donovani promastigotes
# protocol-notes: Promastigote assay
# Format: cell-based
# measurement-conditions: read-out: Extracellular promastigote EC50; Leishmania donovani, 72 h
measured-metric: pEC50
One number for each entry, as −log10 of the molar value.

COc1ccc(N2C(=O)c3[nH]nc(CC(C)C)c3C2c2ccccc2)cc1 (centres unmarked) :: 5.62

Shifting focus to the compound that follows.
Request: Any idea what pEC50 was measured for COc1ccc(N2C(=O)c3[nH]nc(CC(C)C)c3C2c2ccc(F)cc2)cc1 (centres unmarked) ?
Response: 5.70

---

# Test system: host B10R cells
# Type: cell-based
measured-metric: CC50

Request: Query (molecule): COc1ccc(N2C(=O)c3[nH]nc(CC(C)C)c3C2c2ccc(F)cc2)cc1 (stereo not shown) ; field requested: CC50
Response: > 20 µM
